Sourced from ChEMBL document CHEMBL1795219

system: Bacillus subtilis; assay: Antibacterial activity against Bacillus subtilis ATCC 6633 after 24 hrs by MTT colorimetric method; assay type: functional; conditions: ATCC 6633, 24 h
Each entry below lists one item and its recorded MIC50 value.
Respond numerically; units are µg/mL and should not be typed.

Below are worked cases with known answers.
O=C1OCC(OCCN2CCOCC2)=C1c1cccc(O)c1; 47.4
O=C1OCC(OCCN2CCOCC2)=C1c1ccc(Cl)cc1; 8.6
NC[C@H]1O[C@H](O[C@H]2[C@H](O)[C@@H](O[C@H]3O[C@H](CO)[C@@H](O)[C@H](N)[C@H]3O)[C@H](N)C[C@@H]2N)[C@H](O)[C@@H](O)[C@@H]1O; 0.48

Input: Value lookup for MIC50; key = `O=C1OCC(OCCN2CCOCC2)=C1c1ccc(O)cc1`
Output: 2.1

Input: Same question, `O=C1OCC(OCCN2CCOCC2)=C1c1ccc(Br)cc1` this time
Output: 15.8

Input: Next up: `O=C1OCC(OCCN2CCOCC2)=C1c1ccccc1`
Output: 47.4
